molecular target: CNDP2 (Homo sapiens (Human), UniProt Q96KP4); assay: CNDP2 enzyme inhibition assay (Met-His hydrolysis, free histidine by o-phthaldialdehyde fluorescence), dose-response; assay type: biochemical; settings: 50 nM purified CNDP2 (Sino Biological), 1 mM Met-His substrate, 30 minutes at 37° C.; TABLE 2
Sequence (Q96KP4 whole entry): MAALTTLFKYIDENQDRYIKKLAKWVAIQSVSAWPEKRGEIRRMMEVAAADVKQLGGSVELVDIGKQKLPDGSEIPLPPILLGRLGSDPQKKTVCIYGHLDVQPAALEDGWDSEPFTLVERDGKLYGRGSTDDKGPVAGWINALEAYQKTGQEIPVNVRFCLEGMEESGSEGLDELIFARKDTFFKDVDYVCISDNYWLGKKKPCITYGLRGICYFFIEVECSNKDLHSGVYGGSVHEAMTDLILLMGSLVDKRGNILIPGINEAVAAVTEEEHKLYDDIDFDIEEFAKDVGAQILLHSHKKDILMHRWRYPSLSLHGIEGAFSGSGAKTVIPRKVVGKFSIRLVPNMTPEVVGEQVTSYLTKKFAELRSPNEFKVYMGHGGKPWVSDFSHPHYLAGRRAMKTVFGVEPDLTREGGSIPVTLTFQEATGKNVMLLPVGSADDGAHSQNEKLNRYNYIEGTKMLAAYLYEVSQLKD
pIC50: −log10 of the molar value. Where a name gives a salt, the structure may show the parent alone.
QUANTITY_NAME: pIC50

| MOLECULE | TEST_SYSTEM | QUANTITY_NAME | READING |
| --- | --- | --- | --- |
| N[C@H](Cc1ccccc1)[C@H](O)C(=O)N[C@@H](C(=O)O)c1cccc(C(F)(F)F)c1F | CNDP2 (Homo sapiens (Human), UniProt Q96KP4) | pIC50 | > 7.00 |
| N[C@H](Cc1ccc(C(F)(F)F)cc1)[C@H](O)C(=O)N[C@@H](C(=O)O)c1cccc(OC(F)(F)F)c1 [Compound 132] | CNDP2 (Homo sapiens (Human), UniProt Q96KP4) | pIC50 | 6.00 to 7.00 |
| N[C@H](Cc1ccccc1)[C@H](O)C(=O)N[C@H](C(=O)O)c1cc(F)cc(OC(F)(F)F)c1 | CNDP2 (Homo sapiens (Human), UniProt Q96KP4) | pIC50 | > 7.00 |
| N[C@H](Cc1ccccc1)[C@H](O)C(=O)N[C@@H](C(=O)O)c1cc(F)cc(C(F)(F)F)c1 | CNDP2 (Homo sapiens (Human), UniProt Q96KP4) | pIC50 | > 7.00 |
| N[C@H](Cc1ccccc1)[C@H](O)C(=O)N[C@@H](C(=O)O)c1cccc(C(F)(F)F)c1Cl | CNDP2 (Homo sapiens (Human), UniProt Q96KP4) | pIC50 | ≤ 6.00 |
| N[C@H](Cc1ccccc1)[C@H](O)C(=O)N[C@@H](C(=O)O)c1ccc(F)c(C(F)(F)F)c1F | CNDP2 (Homo sapiens (Human), UniProt Q96KP4) | pIC50 | > 7.00 |
| N[C@H](Cc1ccccc1)[C@H](O)C(=O)NC(C(=O)O)c1cccc(OC(F)F)c1 (stereo partly shown) | CNDP2 (Homo sapiens (Human), UniProt Q96KP4) | pIC50 | > 7.00 |
| N[C@H](Cc1ccccc1)[C@H](O)C(=O)N[C@@H](C(=O)O)c1ccc(F)c(C(F)(F)F)c1 | CNDP2 (Homo sapiens (Human), UniProt Q96KP4) | pIC50 | > 7.00 |
| N[C@H](Cc1ccccc1)[C@H](O)C(=O)N[C@@H](C(=O)O)c1ccc(F)c(OC(F)(F)F)c1 | CNDP2 (Homo sapiens (Human), UniProt Q96KP4) | pIC50 | ≤ 6.00 |
| N[C@H](Cc1ccccc1)[C@H](O)C(=O)N[C@H](c1cccc(OC(F)(F)F)c1)c1n[nH]c(=O)o1 | CNDP2 (Homo sapiens (Human), UniProt Q96KP4) | pIC50 | ≤ 6.00 |
| N[C@H](Cc1ccccc1)[C@H](O)C(=O)N[C@@H](C(=O)O)c1cc(C(F)(F)F)ccc1C(F)(F)F | CNDP2 (Homo sapiens (Human), UniProt Q96KP4) | pIC50 | ≤ 6.00 |
| N[C@H](Cc1ccccc1)[C@H](O)C(=O)N[C@@H](Cc1ccc(C(F)(F)F)c(Cl)c1)C(=O)O | CNDP2 (Homo sapiens (Human), UniProt Q96KP4) | pIC50 | 6.00 to 7.00 |
| N[C@H](Cc1ccccc1)[C@H](O)C(=O)N[C@H](C(=O)O)c1ccc(F)c(OC(F)(F)F)c1F [Compound 114, hydrochloride] | CNDP2 (Homo sapiens (Human), UniProt Q96KP4) | pIC50 | > 7.00 |
| N[C@H](Cc1ccc(C(F)(F)F)cc1)[C@H](O)C(=O)N[C@H](C(=O)O)c1cccc(OC(F)(F)F)c1 | CNDP2 (Homo sapiens (Human), UniProt Q96KP4) | pIC50 | ≤ 6.00 |
| N[C@H](Cc1ccccc1)[C@H](O)C(=O)N[C@H](C(=O)O)c1cc(F)cc(C(F)(F)F)c1 | CNDP2 (Homo sapiens (Human), UniProt Q96KP4) | pIC50 | ≤ 6.00 |
| C[C@](NC(=O)[C@@H](O)[C@H](N)Cc1ccccc1)(C(=O)O)c1cccc(C(F)(F)F)c1 | CNDP2 (Homo sapiens (Human), UniProt Q96KP4) | pIC50 | ≤ 6.00 |
| N[C@H](Cc1ccccc1)[C@H](O)C(=O)N[C@H](C(=O)O)c1cc(C(F)(F)F)ccc1C(F)(F)F | CNDP2 (Homo sapiens (Human), UniProt Q96KP4) | pIC50 | ≤ 6.00 |
| N[C@H](Cc1ccccc1)[C@H](O)C(=O)N[C@@H](CN1CCC(F)(F)C1)C(=O)O | CNDP2 (Homo sapiens (Human), UniProt Q96KP4) | pIC50 | ≤ 6.00 |
| C[C@](NC(=O)[C@@H](O)[C@H](N)Cc1ccccc1)(C(=O)O)c1cccc(OC(F)(F)F)c1 | CNDP2 (Homo sapiens (Human), UniProt Q96KP4) | pIC50 | ≤ 6.00 |
| N[C@H](Cc1ccccc1)[C@H](O)C(=O)N[C@H](C(=O)O)c1ccc(F)c(OC(F)(F)F)c1 | CNDP2 (Homo sapiens (Human), UniProt Q96KP4) | pIC50 | > 7.00 |
| N[C@H](Cc1ccccc1)[C@H](O)C(=O)N[C@@H](c1cccc(OC(F)(F)F)c1)c1n[nH]c(=O)o1 | CNDP2 (Homo sapiens (Human), UniProt Q96KP4) | pIC50 | ≤ 6.00 |
| N[C@H](Cc1ccc(Br)cc1)[C@H](O)C(=O)N[C@H](C(=O)O)c1cccc(OC(F)(F)F)c1 | CNDP2 (Homo sapiens (Human), UniProt Q96KP4) | pIC50 | ≤ 6.00 |
| N[C@H](Cc1ccccc1)[C@H](O)C(=O)NC(c1cccc(C(F)(F)F)c1)C(F)(F)C(=O)O (stereo partly shown) | CNDP2 (Homo sapiens (Human), UniProt Q96KP4) | pIC50 | ≤ 6.00 |
| N[C@H](Cc1ccccc1)[C@H](O)C(=O)N[C@H](C(=O)O)c1ccc(Br)c(OC(F)(F)F)c1 [Compound 111, hydrochloride] | CNDP2 (Homo sapiens (Human), UniProt Q96KP4) | pIC50 | > 7.00 |
| N[C@H](Cc1ccccc1)[C@H](O)C(=O)N[C@@H](Cc1ccc(OC(F)(F)F)c(F)c1)C(=O)O | CNDP2 (Homo sapiens (Human), UniProt Q96KP4) | pIC50 | 6.00 to 7.00 |
| N[C@H](Cc1ccccc1)[C@H](O)C(=O)N[C@H](C(=O)O)c1cc(Cl)cc(OC(F)(F)F)c1 [Compound 109, hydrochloride] | CNDP2 (Homo sapiens (Human), UniProt Q96KP4) | pIC50 | > 7.00 |
| N[C@H](Cc1ccc(Cl)cc1)[C@H](O)C(=O)N[C@H](C(=O)O)c1cccc(OC(F)(F)F)c1 | CNDP2 (Homo sapiens (Human), UniProt Q96KP4) | pIC50 | ≤ 6.00 |
| N[C@H](Cc1ccccc1)[C@H](O)C(=O)N[C@H](C(=O)O)c1ccc(Cl)c(OC(F)(F)F)c1 [Compound 107, hydrochloride] | CNDP2 (Homo sapiens (Human), UniProt Q96KP4) | pIC50 | > 7.00 |

Ref: patent US20250120927A1
